- System: K98450-129-R-PDC multicell spheroids, viability;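 further: spheroids exposed to agents for seven days before read-out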
- ASSAY DETAILS: Anticancer human tumor K98450-129-R-PDC patient-derived colon adenocarcinoma cell line growth inhibition [PI3K]
- CONDITIONS USED: second compound 10 µM; first compound 10 µM; active compounds read low
PARAMETER: viability, T/C

[in] Could you share which viability, T/C value was measured for C[C@@H](NC(=O)c1ncnc(N)c1Cl)c1ncc(C(=O)Nc2cc(C(F)(F)F)c(Cl)cn2)s1 + CC(Nc1ncnc2nc[nH]c12)c1cc2cccc(Cl)c2c(=O)n1-c1ccccc1 ?
[out] 78%

[in] Could you share which viability, T/C value was measured for Cn1nccc1Nc1nccc(-c2ccn(C(CO)c3ccc(Cl)c(F)c3)c(=O)c2)n1 (stereo unspecified) + CC(Nc1ncnc2nc[nH]c12)c1cc2cccc(Cl)c2c(=O)n1-c1ccccc1 ?
[out] 66.3%

[in] Could you share which viability, T/C value was measured for CC(C)NCC(C(=O)N1CCN(c2ncnc3c2C(C)CC3O)CC1)c1ccc(Cl)cc1 (stereo unspecified) + Cc1nc(NC(=O)N2CCCC2C(N)=O)sc1-c1ccnc(C(C)(C)C(F)(F)F)c1 ?
[out] 75%

[in] Could you share which viability, T/C value was measured for CNC(=O)c1ccc(N2C(=S)N(c3ccc(C#N)c(C(F)(F)F)c3)C(=O)C2(C)C)cc1F + Cc1nc(NC(=O)N2CCCC2C(N)=O)sc1-c1ccnc(C(C)(C)C(F)(F)F)c1 ?
[out] 73.5%

[in] Could you share which viability, T/C value was measured for CC1(C)CCC(Nc2ncc(C(F)(F)F)c(-c3c[nH]c4c(P(C)(C)=O)c(C#N)ccc34)n2)CN1 (stereo unspecified) + CC(Nc1ncnc2nc[nH]c12)c1cc2cccc(Cl)c2c(=O)n1-c1ccccc1 ?
[out] 21.6%

[in] Could you share which viability, T/C value was measured for C#Cc1c(F)ccc2cc(O)cc(-c3ncc4c(N5CC6CCC(C5)N6)nc(OCC56CCCN5CC(F)C6)nc4c3F)c12 (stereo unspecified) + CC(Nc1ncnc2nc[nH]c12)c1cc2cccc(Cl)c2c(=O)n1-c1ccccc1 ?
[out] 75.1%
